Taken from PubChem BioAssay AID330.

Exercise: state measured T/C for each of the compounds provided.
Tested on: P388 leukemia ip, CD2F1 mice, survival T/C
Assay: NCI In Vivo Anticancer Drug Screen. Data for tumor model P388 Leukemia (intraperitoneal) in CD2F1 (CDF1) mice
Conditions: endpoint: median survival time; dose: 25.0 mg/kg/injection; schedule: Q01DX009 (ip); vehicle: saline; higher = longer survival
Inconclusive results and toxic doses are left out.

Exam item: What reported T/C corresponds to [Co].[NH-]CC[NH-].[NH-]CC[NH-].[NH-]CC[NH-] on P388 leukemia ip, CD2F1 mice, survival T/C?
Marked response: 100 % of control

Exam item: Now the compound CN(C)CC(O)c1cc2ccccc2c2ccccc12 (stereo unspecified)
Marked response: 103 % of control

Exam item: Now the compound CCCCCCCCCCCCCCCCN1CCSCC1
Marked response: 97 % of control

Exam item: Now the compound C[N+]1(CI)CC2CC(C1)C[N+](C)(CI)C2 (stereo unspecified)
Marked response: 110 % of control

Exam item: Now the compound CN1CCOc2cc3nc4ccccc4nc3cc21
Marked response: 107 % of control

Exam item: Now the compound CC(C)NNC(=O)c1ccncc1
Marked response: 101 % of control

Exam item: Now the compound CCCCCCCCCCCCC1=NCC[N+]1(CCO)CC(O)COc1cc(Cl)c(Cl)cc1Cl (stereo unspecified)
Marked response: 105 % of control

Exam item: Now the compound CCNc1nncs1
Marked response: 113 % of control

Exam item: Now the compound CC1CCCN(CCSSCCN2CCCC(C)C2)C1 (stereo unspecified)
Marked response: 113 % of control

Exam item: Now the compound CCN(CC)CCCCCNc1cc(Cl)c(Cl)cc1[N+](=O)[O-]
Marked response: 95 % of control

Exam item: Now the compound Cn1nccc1N
Marked response: 117 % of control

Exam item: Now the compound C=Cn1ccnc1
Marked response: 103 % of control

Exam item: Now the compound CCC#CC(=O)O
Marked response: 96 % of control

Exam item: Now the compound CNS(=O)(=O)c1ccc(Cl)cc1
Marked response: 98 % of control

Exam item: Now the compound CCOC(=O)C1=C(C#N)C2(CCC(OCc3ccccc3)CC2)C(=O)O1 (stereo unspecified)
Marked response: 104 % of control

Exam item: Now the compound COc1cc(Cc2nc3n(O)cc(C)nc-3c(=N)n2)cc(OC)c1OC
Marked response: 105 % of control

Exam item: Now the compound CC(N)P(=O)(O)O (stereo unspecified)
Marked response: 100 % of control

Exam item: Now the compound Cc1nsc(Br)c1[N+](=O)[O-]
Marked response: 105 % of control

Exam item: Now the compound CCCCCCC1(/C=C/c2ccc(Cl)c(Cl)c2)OCCS1 (stereo unspecified)
Marked response: 104 % of control

Exam item: Now the compound CCCCC1C=CC2C(N1)N2C#N (stereo unspecified)
Marked response: 102 % of control

Exam item: Now the compound C#CCSc1ncnc2nc[nH]c12
Marked response: 95 % of control

###

Exercise: state measured T/C for each of the compounds provided.
System: P388 leukemia ip, CD2F1 mice, survival T/C
Assay: NCI In Vivo Anticancer Drug Screen. Data for tumor model P388 Leukemia (intraperitoneal) in CD2F1 (CDF1) mice
Conditions: endpoint: median survival time; dose: 120.0 mg/kg/injection; schedule: Q01DX005 (ip); vehicle: saline with Tween-80; higher = longer survival
Toxic doses and inconclusive results are not listed.

Exam item: What reported T/C corresponds to Nc1nnc(-c2cc([N+](=O)[O-])cc([N+](=O)[O-])c2)o1 on P388 leukemia ip, CD2F1 mice, survival T/C?
Marked response: 94 % of control

Exam item: Now the compound CC1(C)CC2(Nc3ccccc3N2)C2=C(O1)C(=O)OC2
Marked response: 103 % of control

Exam item: Now the compound COC(=O)CC1C=CC(OC)[C@@]2(C)C(=O)C(OC)=CC(=O)[C@@H]12 (stereo partly specified)
Marked response: 105 % of control

Exam item: Now the compound COC(=O)C1=C(C)NC(C)=C(C(=O)OC)C1c1cc2ccccc2n2nnnc12
Marked response: 98 % of control

Exam item: Now the compound CC(C)N1C(=O)NC2C1NC(=O)N2C(C)C (stereo unspecified) (tested in a mixture with another compound)
Marked response: 105 % of control

Exam item: Now the compound O=C1OC(Oc2ccccc2OC2OC(=O)c3ccccc32)c2ccccc21 (stereo unspecified)
Marked response: 106 % of control

Exam item: Now the compound O=[N+]([O-])c1cccc(S(=O)(=O)N/N=C/c2cccc([N+](=O)[O-])c2O)c1
Marked response: 107 % of control

Exam item: Now the compound Cc1cc(N2CCOCC2)n2c(nc3ccccc32)c1C#N
Marked response: 100 % of control

Exam item: Now the compound O=C(CCCl)Nc1cccc(CCC(=O)c2cccc(NC(=O)CCCl)c2)c1
Marked response: 103 % of control

Exam item: Now the compound [Se]=[Mo]=[Se]
Marked response: 95 % of control

Exam item: Now the compound Cc1cccc(NC(=S)NC2C(=O)Nc3ccccc32)c1 (stereo unspecified)
Marked response: 100 % of control

###

Exercise: state measured T/C for each of the compounds provided.
Test system: P388 leukemia ip, CD2F1 mice, survival T/C
Experiment: NCI In Vivo Anticancer Drug Screen. Data for tumor model P388 Leukemia (intraperitoneal) in CD2F1 (CDF1) mice
Conditions: endpoint: median survival time; dose: 100.0 mg/kg/injection; schedule: Q01DX001 (ip); vehicle: saline with Tween-80; higher = longer survival
Inconclusive results and toxic doses are left out.

Exam item: Name the recorded T/C for CN1C2=C(C(=O)CC2)C(c2ccccc2)C2=C1CCC2=O .
Marked response: 96 % of control

Exam item: Now the compound CC1CCCC/C1=N/SC(c1ccccc1)(c1ccccc1)c1ccccc1 (stereo unspecified)
Marked response: 91 % of control

Exam item: Now the compound O=C(O)c1cccc(C(=O)O)c1Sc1c(C(=O)O)cccc1C(=O)O
Marked response: 99 % of control

Exam item: Now the compound CC(=O)OCC1OC(n2cnc3c2N=CN2C(CCl)=CC(=O)NC32)C(OC(C)=O)C1OC(C)=O (stereo unspecified)
Marked response: 103 % of control

Exam item: Now the compound Cc1cc(CO)cc(CO)c1
Marked response: 104 % of control

Exam item: Now the compound O=C(O)c1ccc(Cn2ccc(=O)[nH]c2=O)cc1
Marked response: 100 % of control

Exam item: Now the compound Brc1cnc2nc(-c3cccc4ccccc34)[nH]c2c1
Marked response: 96 % of control

Exam item: Now the compound COC1=C(C)C(=O)c2c(c(/C=N/NC(N)=S)c(Cl)n2C)C1=O
Marked response: 103 % of control

Exam item: Now the compound CNC(=S)OCCn1c([N+](=O)[O-])cnc1C
Marked response: 92 % of control

Exam item: Now the compound O=C1Nc2ccccc2C1NC(=S)Nc1ccc(Cl)cc1 (stereo unspecified)
Marked response: 87 % of control

Exam item: Now the compound CCCn1c(Cl)c(/C=N\Nc2cccc([N+](=O)[O-])c2)c2ccccc21
Marked response: 91 % of control

Exam item: Now the compound CN1C2=NCCN2S(=O)(=O)c2ccccc21
Marked response: 101 % of control

Exam item: Now the compound Cc1ccc(C(=O)/C(N)=C\c2c[nH]c3ccccc23)cc1
Marked response: 104 % of control

Exam item: Now the compound COC(=O)Cn1/c(=N\N=C(/C)c2ccccc2)sc2ccccc21
Marked response: 102 % of control

Exam item: Now the compound Cc1c(-c2ccccc2)oc(=O)c(Cl)c1N(C)c1ccccc1
Marked response: 94 % of control

Exam item: Now the compound CC(C)CC(NC(=O)C(C)N)C(=O)NC(C)C(=O)NC1C(O)OC(CO)C(O)C1O (stereo unspecified)
Marked response: 100 % of control

###

Test system: P388 leukemia ip, CD2F1 mice, survival T/C
Assay: NCI In Vivo Anticancer Drug Screen. Data for tumor model P388 Leukemia (intraperitoneal) in CD2F1 (CDF1) mice
Conditions: endpoint: median survival time; dose: 100.0 mg/kg/injection; schedule: Q01DX005 (ip); vehicle: saline with Tween-80; higher = longer survival
Toxic doses and inconclusive results are not listed.
Recorded metric: T/C

Exam item: What reported T/C corresponds to NC(=S)N/N=C/c1c(O)c2cc(Cl)ccc2[nH]c1=O on P388 leukemia ip, CD2F1 mice, survival T/C?
Marked response: 112 % of control

Exam item: Now the compound C/C(=N\NC(=S)Nc1ccc([N+](=O)[O-])cc1S(=O)(=O)O)c1ccccn1
Marked response: 106 % of control

Exam item: Now the compound OCCCCCCCCCCCN1CCOCC1
Marked response: 98 % of control

Exam item: Now the compound Cc1nn(C(=S)S)c(C)c1N=Nc1cc(Cl)ccc1Cl
Marked response: 95 % of control

Exam item: Now the compound CC(=O)NC1CCCCC1C1CCC(N)CC1 (stereo not drawn)
Marked response: 102 % of control

Exam item: Now the compound FC(F)(F)c1cccc(C(Nc2nncs2)Nc2nncs2)c1
Marked response: 91 % of control

Exam item: Now the compound C=CC1=C(C)C2=NC1=CC1=NC(=CC3=C(C)C4=C(O)C(C(=O)OC)C(=C5NC(=C2)C(C)C5CCC(=O)OC/C=C(\C)CCCC(C)CCCC(C)CCCC(C)C)C4=N3)C(CC)=C1C (stereo not drawn)
Marked response: 92 % of control

Exam item: Now the compound N#Cc1[nH]cnc1O
Marked response: 101 % of control

Exam item: Now the compound O=C1CCCCCCCC(=O)Nc2ccc3nc4ccccc4c(c3c2)SCCCCCCCCCCCCSc2c3ccccc3nc3ccc(cc23)N1
Marked response: 107 % of control

Exam item: Now the compound OCCN1CCOC(O)(c2cccc(C(F)(F)F)c2)C1 (stereo not drawn)
Marked response: 95 % of control

Exam item: Now the compound O=C1OC(c2ccccc2)(c2ccccc2)CC1C=C(c1ccccc1)c1ccccc1 (stereo not drawn)
Marked response: 89 % of control

Exam item: Now the compound Cc1cc(N)c(C)c2c1[nH]c1ccc(Br)cc12
Marked response: 93 % of control

Exam item: Now the compound Cc1cc(Cl)cc2c1NC(=O)C2(O)C/C(=N/NC(=O)CC#N)c1cccc([N+](=O)[O-])c1 (stereo not drawn)
Marked response: 103 % of control

Exam item: Now the compound C(=N\NC1=NCCN1)/c1c[nH]c2ccccc12
Marked response: 97 % of control

Exam item: Now the compound O=C(O)c1ccccc1NCc1ccco1
Marked response: 96 % of control

Exam item: Now the compound NNC(=O)c1oc2ccccc2c1CN(CCO)CCO
Marked response: 98 % of control

Exam item: Now the compound O=S1(=O)C(CCCCC2=Cc3ccccc3S2(=O)=O)=Cc2ccccc21
Marked response: 100 % of control

Exam item: Now the compound Cc1ccc(S(=O)(=O)OCC(COS(=O)(=O)c2ccc(C)cc2)C(C)(C)C)cc1
Marked response: 104 % of control

Exam item: Now the compound COc1cc2c(cc1O)CC1c3c(cc(O)c(OC)c3-2)CCN1C (stereo not drawn)
Marked response: 87 % of control

Exam item: Now the compound CC12CCc3ccccc3C1=Nc1ccccc12 (stereo not drawn)
Marked response: 104 % of control

Exam item: Now the compound CN(OC(=O)C(C)(C)C)C(=O)C(C)(C)C
Marked response: 106 % of control

Exam item: Now the compound O=Nc1c2cc3ccccc3[nH]c-2c2ccccc12
Marked response: 93 % of control

Exam item: Now the compound CC(C)(C)OC(=O)N[C@@H](CNOCc1ccccc1)C(N)=O
Marked response: 92 % of control
